- Test system: VCAM-1
- TEST: Cell surface ELISA for VCAM-1 in human aortic smooth muscle cells (HASMC), cytokine-induced (interleukin-4)
- Type: cell-based
- CONDITION: HASMC, 20 h, read-out: HSMC-2 (% inh. 50 μM) VCAM-1
A collection of compounds and their measured inhibition at 50 µM
Answer in %, number only, no unit symbol.

stdin: Recorded inhibition at 50 µM for CC(C)(C)c1cc(SC[Si](C)(C)C)cc(C(C)(C)C)c1O with VCAM-1, please?
stdout: 18

stdin: Queued: Cc1cc(SC[Si](C)(C)c2ccccc2)cc(C(C)(C)C)c1O
stdout: 47

stdin: Queued: Cc1cc(OC[Si](C)(C)c2ccccc2)cc(C)c1O
stdout: 49

stdin: Queued: CC(C)(C)c1cc(OC[Si](C)(C)c2ccc(Cl)cc2)cc(C(C)(C)C)c1O
stdout: 63
